- Method description: Stability of compounds in human blood plasma
- Assay type: in vitro ADME
- Description: The stability of the peptidomimetic compounds was determined in rat (Charles River Laboratories, Sulzfeld), mouse (Charles River Laboratories, Sulzfeld) and human (Bayerisches Rotes Kreuz, München) blood plasma (E. R. Garrett and M. R. Gardner, J Pharmaceutical Sciences 71 (1982) 14-25). Compound stock solutions were diluted into blood plasma to give a final compound concentration of 5 μM and the mixtures were incubated at 37° C. […]
Numbered stars: 1 amine (or outer) side, 2 acyl side, 3 side chain; on linkers, the order of the positions; unused ones are H or OH. Square brackets hold non-standard residues; d marks the D form. Peptide text beside a SMILES is read from it. * marks the point of attachment. ξ: configuration not given here. Gly(1-amidinopiperidin-4-yl) = N=C(N)N1CCC([C@H](N)C(=O)O)CC1; X1 = CC(C)c1oc([C@H](CO)N[*:1])nc1C(=O)[*:2]; Pro(3R-Ph) = O=C(O)[C@H]1NCC[C@@H]1c1ccccc1; Tic = O=C(O)[C@@H]1Cc2ccccc2CN1; Cha = N[C@@H](CC1CCCCC1)C(=O)O; NMe(benzyl) = CN(Cc1ccccc1)*; ξDisc = O=C(O)C1NCc2ccccc21; Nle = CCCC[C@H](N)C(=O)O; X6 = OCCN(CCc1ccccc1)*
Measured Stability (Arbitrary units) Human 24 h accompanies every entry in the list below.
For clarity, give the value followed by its unit.

molecule="CCCC[C@H](NC(=O)C1c2ccccc2CN1C(=O)[C@@H](NC(=O)[C@H](CC1CCCCC1)NC(C)=O)C1CCN(C(=N)N)CC1)C(=O)N1CC[C@H](c2ccccc2)[C@H]1C(=O)N[C@@H](CO)c1nc(C(=O)N(C)C)c(C(C)C)o1 (stereo partly drawn) [Compound P81-1] (Ac-[Cha][Gly(1-amidinopiperidin-4-yl)][ξDisc][Nle][Pro(3R-Ph)][X1]-NMe2)" experimental_value="162 Arbitrary units"

Inquiry: Find the recorded Stability (Arbitrary units) Human 24 h belonging to CCCC[C@H](NC(=O)[C@@H]1Cc2ccccc2CN1C(=O)[C@H](CCCNC(=N)N)NC(=O)[C@H](CC1CCCCC1)NC(C)=O)C(=O)N(C)Cc1ccccc1 [Compound P71, Ac-Cha-Arg-Tic-Nle-N(Me)Bn] (Ac-[Cha]R[Tic][Nle]-{NMe(benzyl)}) and report it.
Reply text: 90 Arbitrary units

Inquiry: Query: Stability (Arbitrary units) Human 24 h; subject: CSCC[C@H](NC(=O)[C@@H]1Cc2ccccc2CN1C(=O)[C@H](CCCNC(=N)N)NC(=O)[C@H](CC1CCCCC1)NC(C)=O)C(=O)N(CCO)CCc1ccccc1 [Compound P85, Ac-Cha-Arg-Tic-Met-N(CH2CH2OH)CH2CH2Ph] (Ac-[Cha]R[Tic]M-X6)
Reply text: 129 Arbitrary units

---

- Method description: Stability of compounds in mouse blood plasma
- Assay type: in vitro ADME
Numbered stars: 1 amine (or outer) side, 2 acyl side, 3 side chain; on linkers, the order of the positions; unused ones are H or OH. Square brackets hold non-standard residues; d marks the D form. Peptide text beside a SMILES is read from it. * marks the point of attachment. ξ: configuration not given here. Gly(1-amidinopiperidin-4-yl) = N=C(N)N1CCC([C@H](N)C(=O)O)CC1; X1 = CC(C)c1oc([C@H](CO)N[*:1])nc1C(=O)[*:2]; Pro(3R-Ph) = O=C(O)[C@H]1NCC[C@@H]1c1ccccc1; Met(O) = CS(=O)CC[C@H](N)C(=O)O; Tic = O=C(O)[C@@H]1Cc2ccccc2CN1; Cha = N[C@@H](CC1CCCCC1)C(=O)O; NHPhenethyl = c1ccc(CCN*)cc1; ξDisc = O=C(O)C1NCc2ccccc21; Nle = CCCC[C@H](N)C(=O)O
Reported property: Stability (Arbitrary units) Mouse 6 h
Express your answer in Arbitrary units, writing the number without its unit.

compound="CSCC[C@H](NC(=O)C1c2ccccc2CN1C(=O)[C@@H](NC(=O)[C@H](CC1CCCCC1)NC(C)=O)C1CCN(C(=N)N)CC1)C(N)=O (stereo partly drawn) [Compound P66-1, Ac-Cha-Gpg-Disc-Met-NH2] (Ac-[Cha][Gly(1-amidinopiperidin-4-yl)][ξDisc]M-NH2)" scale_unit="Arbitrary units" experimental_value=115
compound="CCCC[C@H](NC(=O)[C@@H]1Cc2ccccc2CN1C(=O)[C@@H](NC(=O)[C@H](CC1CCCCC1)NC(C)=O)C1CCN(C(=N)N)CC1)C(=O)NCCc1ccccc1 [Compound P69, Ac-Cha-Gpg-Tic-Nle-N(H)CH2CH2Ph] (Ac-[Cha][Gly(1-amidinopiperidin-4-yl)][Tic][Nle]-NHPhenethyl)" scale_unit="Arbitrary units" experimental_value=115

Lab note: next compound to report on.
Inquiry: What value of Stability (Arbitrary units) Mouse 6 h has been reported for the following compound? CC(=O)N[C@@H](CC1CCCCC1)C(=O)N[C@@H](CCCNC(=N)N)C(=O)N1Cc2ccccc2C[C@H]1C(=O)N[C@@H](CC[S+](C)[O-])C(=O)N1CC[C@H](c2ccccc2)[C@H]1C(=O)N[C@@H](CO)c1nc(C(=O)N(C)C)c(C(C)C)o1 (stereo partly drawn) [Compound P43] (Ac-[Cha]R[Tic][Met(O)][Pro(3R-Ph)][X1]-NMe2)
Reply text: 96
